Target: T1, NS-SPIK (Normal Secreted serine protease inhibitor Kazal) (Homo sapiens (Human), UniProt P00995 24-79)
T1 construct: also called Normal Secreted SPIK
T1 sequence: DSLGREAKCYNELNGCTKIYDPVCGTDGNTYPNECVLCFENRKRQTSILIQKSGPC
Assay: ELISA on a plate immobilised with NS-SPIK from pancreatic cells, OD450nm; antibody concentration not given
measured-parameter: binding result

IM-G7 (antibody, V domains shown, Rabbit monoclonal antibody) VH: QSVKESEGGLFKPTDTLTLTCTVSGFSLSSNVISWVRQAPGKGLEWIGDIYVSGNTDYASWAKSRSTITRNANLNTVTLKMTSLTAADTATYFCARYDMSSDAFDPWGPGTLVTVSS VL: AYDMTQTPASVEVAVGGTVTIKCQASQNIGSYLSWYQHKPGQRPRLLMYRASTLASGVSSRFKGSGSGTEFTLTISGVQCDNAATYYCQQGYTNSGVDNTFGGGTEVVVKG : no binding
IM-C6 (antibody, V domains shown, Rabbit monoclonal antibody) VH: QSVKESEGGLFKPTDALTLTCTVSGFSLSSYAISWVRQAPGSGLEWIGAINTYGGTYYASWAKSRSTITRNTNENTVTLKMTSLTAADTATYFCARDFDSDAYTSASGGMDPWGPGTLVTVSS VL: AYDMTQTPASVEVAVGGTVTIKCQASQSINNYLSWYQQIPGQPPKLLIYRASTLASGVSSRFKGSGSGTQFTLTISGVQCADAATYYCQQGYTSNVDNVFGGGTEVVVKG : no binding
IM-A1 (antibody, V domains shown, Rabbit monoclonal antibody; also called I-A1) VH: QSVKESEGGLFKPTDTLTLTCTVSGFSLSSNAISWVRQAPGNGLEWIGAIGSSGSTYYASWAKSRSTVTRNTNLNTVTLKMTSLTAADTATYFCARWENIGYTNVRLDLWGQGTLVTVSS VL: AYDMTQTPASVEVAVGGTVTIKCQASQSISTALAWYQQKPGQPPKLLIYGASTLASGVSSRFKGSGSGTQFTLTISGVECADAATYYCQQGYSTSDVDNAFGGGTEG : no binding

The origin of these recorded values is patent US20220273810A1.
